Origin of measurements: ChEMBL document CHEMBL1255567

Assay: Clearance in rhesus monkey at 1 mg/kg, iv
Type: ADME, organism-based, Macaca mulatta
Set-up: dose 1 mg/kg, route intravenous
Details: in vivo
Attribute measured: clearance (mL/min/kg)

Structure notation	Reported
N#Cc1cc(F)cc(N2CCCc3oc(-c4ccccn4)nc3C2)c1	16.3

---

Molecular target: Metabotropic glutamate receptor 5 (Homo sapiens)
Assay: Modulation of human recombinant mGluR5 expressed in CHO cells assessed as inhibition of glutamate-induced response
Sequence (P41594 whole entry): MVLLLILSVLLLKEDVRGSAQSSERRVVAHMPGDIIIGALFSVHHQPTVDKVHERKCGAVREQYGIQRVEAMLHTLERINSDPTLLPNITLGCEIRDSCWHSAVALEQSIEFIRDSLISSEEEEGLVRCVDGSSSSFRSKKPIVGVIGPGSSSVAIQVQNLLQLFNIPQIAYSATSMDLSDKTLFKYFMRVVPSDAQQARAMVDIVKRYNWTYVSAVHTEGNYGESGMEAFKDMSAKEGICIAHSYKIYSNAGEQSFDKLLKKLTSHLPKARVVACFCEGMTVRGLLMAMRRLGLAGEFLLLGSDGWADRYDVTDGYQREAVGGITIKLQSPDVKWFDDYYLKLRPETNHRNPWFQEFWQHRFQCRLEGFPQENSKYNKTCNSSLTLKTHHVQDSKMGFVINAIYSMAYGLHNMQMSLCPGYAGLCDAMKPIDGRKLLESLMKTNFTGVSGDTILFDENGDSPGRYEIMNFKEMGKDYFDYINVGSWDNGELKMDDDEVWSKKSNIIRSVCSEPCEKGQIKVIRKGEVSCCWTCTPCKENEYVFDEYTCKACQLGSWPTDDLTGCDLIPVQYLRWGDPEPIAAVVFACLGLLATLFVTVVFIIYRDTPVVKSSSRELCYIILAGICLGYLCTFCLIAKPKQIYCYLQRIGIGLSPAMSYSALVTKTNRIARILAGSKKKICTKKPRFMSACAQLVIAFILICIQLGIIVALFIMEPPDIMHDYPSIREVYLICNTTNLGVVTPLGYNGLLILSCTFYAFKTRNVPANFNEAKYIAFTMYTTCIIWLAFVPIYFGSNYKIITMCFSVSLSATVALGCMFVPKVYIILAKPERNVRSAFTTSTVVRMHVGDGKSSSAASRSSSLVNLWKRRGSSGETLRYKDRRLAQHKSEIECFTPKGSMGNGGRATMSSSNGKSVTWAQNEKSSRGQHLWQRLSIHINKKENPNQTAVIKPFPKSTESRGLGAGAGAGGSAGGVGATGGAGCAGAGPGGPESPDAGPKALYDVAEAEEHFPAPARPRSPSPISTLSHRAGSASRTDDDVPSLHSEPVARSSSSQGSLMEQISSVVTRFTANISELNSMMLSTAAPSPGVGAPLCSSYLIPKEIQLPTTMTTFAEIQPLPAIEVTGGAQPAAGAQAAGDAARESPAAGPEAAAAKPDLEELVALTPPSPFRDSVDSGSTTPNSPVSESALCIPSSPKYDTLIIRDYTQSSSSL

Compound	IC50 (nM)
N#Cc1cc(F)cc(N2CCn3cc(-c4ccccn4)nc3C2)c1	153
N#Cc1cc(F)cc(N2CCCc3oc(-c4ccccn4)nc3C2)c1	16
c1ccc(N2CCc3oc(-c4ccccn4)nc3C2)cc1	330
N#Cc1cc(F)cc(N2CCc3nc(-c4ccccn4)oc3C2)c1	54
N#Cc1cccnc1N1CCc2oc(-c3ccccn3)nc2C1	110
N#Cc1cccc(N2CC3N=C(c4ccccn4)OC3C2)c1 (stereo not drawn)	219
N#Cc1cc(F)cc(N2CCc3oc(-c4ccccn4)nc3C2)c1	28
N#Cc1cccc(N2CCc3oc(-c4ccccn4)nc3C2)c1	60
N#Cc1cccnc1N1CCc2oc(-c3ccccc3)nc2C1	1200
N#Cc1cccnc1N1CCc2nc(-c3ccccn3)oc2C1	640
N#Cc1cc(F)cc(N2CCn3nc(-c4ccccn4)nc3C2)c1	346
N#Cc1cccc(C(=O)N2CCc3nc(-c4ccccn4)oc3C2)c1	2600
N#Cc1cccc(N2CCc3nc(-c4ccccn4)oc3C2)c1	290

---

Assay: Clearance in Sprague-Dawley rat at 2 mg/kg, iv
Format: ADME, organism-based
Design: dose 2 mg/kg, route intravenous
Details: in vivo

Structure notation	clearance / mL/min/kg
N#Cc1cc(F)cc(N2CCCc3oc(-c4ccccn4)nc3C2)c1	46.5

---

Experiment: AUC (0 to t) in Sprague-Dawley rat at 2 mg/kg, iv
Assay type: ADME, organism-based
Set-up: dose 2 mg/kg, route intravenous
Details: plasma

Structure notation	AUC(0-t)
N#Cc1cc(F)cc(N2CCCc3oc(-c4ccccn4)nc3C2)c1	2.26 µM·h

---

Assay: AUC (0 to t) in Sprague-Dawley rat at 2 mg/kg, po
Assay type: ADME, organism-based
Parameters: dose 2 mg/kg, route oral
Settings: plasma
Attribute measured: AUC(0-t) (µM·h)

Structure notation	Unit tag	Reported
N#Cc1cc(F)cc(N2CCCc3oc(-c4ccccn4)nc3C2)c1	µM·h	0.7

---

Quick reference for inhibition among some compounds
Target: Metabotropic glutamate receptor 5 (Homo sapiens, UniProt P41594)
Assay: Modulation of human recombinant mGluR5 expressed in CHO cells assessed as inhibition of glutamate-induced response at 10 uM
Assay type: cell-based
Sequence (P41594 21-1212 limits assumed): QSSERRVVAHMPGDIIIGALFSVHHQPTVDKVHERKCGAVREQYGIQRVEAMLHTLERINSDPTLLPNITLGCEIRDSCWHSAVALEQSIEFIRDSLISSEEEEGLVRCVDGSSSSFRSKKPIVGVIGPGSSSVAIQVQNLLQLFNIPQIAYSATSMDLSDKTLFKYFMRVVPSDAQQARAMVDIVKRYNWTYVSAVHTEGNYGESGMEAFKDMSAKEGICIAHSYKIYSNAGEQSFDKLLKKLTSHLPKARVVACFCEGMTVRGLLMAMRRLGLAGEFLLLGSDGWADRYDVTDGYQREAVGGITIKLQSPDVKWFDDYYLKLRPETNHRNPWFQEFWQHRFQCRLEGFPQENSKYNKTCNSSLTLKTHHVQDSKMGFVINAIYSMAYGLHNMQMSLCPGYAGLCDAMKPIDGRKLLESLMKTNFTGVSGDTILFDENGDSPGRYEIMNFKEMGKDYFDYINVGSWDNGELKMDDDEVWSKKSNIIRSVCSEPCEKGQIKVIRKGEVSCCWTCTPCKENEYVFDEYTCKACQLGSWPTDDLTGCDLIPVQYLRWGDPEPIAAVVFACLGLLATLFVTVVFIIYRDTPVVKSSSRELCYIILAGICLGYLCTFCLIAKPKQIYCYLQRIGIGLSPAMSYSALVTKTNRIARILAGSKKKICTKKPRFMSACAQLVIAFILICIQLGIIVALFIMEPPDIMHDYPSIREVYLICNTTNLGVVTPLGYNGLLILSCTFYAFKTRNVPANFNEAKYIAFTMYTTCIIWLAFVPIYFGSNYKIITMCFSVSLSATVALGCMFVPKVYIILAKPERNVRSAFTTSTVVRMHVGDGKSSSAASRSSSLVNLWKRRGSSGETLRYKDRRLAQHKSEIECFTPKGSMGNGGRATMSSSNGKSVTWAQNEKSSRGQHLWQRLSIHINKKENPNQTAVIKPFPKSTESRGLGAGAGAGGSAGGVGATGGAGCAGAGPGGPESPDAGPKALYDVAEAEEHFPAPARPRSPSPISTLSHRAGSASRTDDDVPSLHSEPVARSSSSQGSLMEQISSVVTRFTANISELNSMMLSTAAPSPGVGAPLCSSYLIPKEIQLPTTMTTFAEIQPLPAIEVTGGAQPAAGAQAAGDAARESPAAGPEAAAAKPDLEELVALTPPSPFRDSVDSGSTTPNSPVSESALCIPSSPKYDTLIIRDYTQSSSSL

Structure notation	inhibition, %
N#Cc1cccc(S(=O)(=O)N2CCc3nc(-c4ccccn4)oc3C2)c1	14
N#Cc1cccc(N2CCc3nc(C4CCCCC4)oc3C2)c1	79
N#Cc1cc(F)cc(N2CCc3nc(-c4ccccn4)[nH]c3C2)c1	34

---

System: Plasma
Assay: Drug level in Sprague-Dawley rat plasma at 3 mg/kg, ip
Assay type: ADME, organism-based
Parameters: dose 3 mg/kg, route intraperitoneal
Conditions: in vivo

Structure notation	concentration (nM)
N#Cc1cc(F)cc(N2CCCc3oc(-c4ccccn4)nc3C2)c1	1430

---

Experiment: Half life in Sprague-Dawley rat at 2 mg/kg, iv
Type: ADME, organism-based
Parameters: dose 2 mg/kg, route intravenous
Conditions: Sprague-Dawley, in vivo

Structure notation	Unit tag	half-life
N#Cc1cc(F)cc(N2CCCc3oc(-c4ccccn4)nc3C2)c1	min	37.2
